# Procedure Text: Therapeutic index, ratio of HC10 for sheep RBC to geometric mean MIC for gram positive bacteria
# Type: toxicity
# Assay Conditions: sheep red blood cells, read-out: TI
selectivity ratio below 50 gives f; selectivity ratio at or above it gives t.

>  <Substance>
H-LAKKIYRKWKRW-NH2

>  <Cat>
t

$$$$
>  <Substance>
H-KRFWQLVPLAIKIYRAWKRR-OH

>  <Cat>
f

$$$$
>  <Substance>
H-LAIKIYRAWKRR-NH2

>  <Cat>
t

$$$$
>  <Substance>
H-LWKKIYRKWKRW-NH2

>  <Cat>
t

$$$$
>  <Substance>
H-VPLAIKIYRAWKRR-NH2

>  <Cat>
f

$$$$
>  <Substance>
H-LIKKIYRKWKRW-NH2

>  <Cat>
t

$$$$
>  <Substance>
H-FWQLVPLAIKIYRAWKRR-NH2

>  <Cat>
f

$$$$
>  <Substance>
H-QLVPLAIKIYRAWKRR-NH2

>  <Cat>
f

$$$$
>  <Substance>
H-LAKKIYRAWKRR-NH2

>  <Cat>
f

$$$$
>  <Substance>
H-LAKKIYRAWKRW-NH2

>  <Cat>
f

$$$$
